Values were extracted from paper PMC8473292.

tested on: Vero cells; conditions: Vero cells, MTT assay
Measurement kind: CC50

Record excerpt, results attached:
>  <Compound>
CC[C@]12C=CCN3CC[C@]4(C(=C(C(=O)OC)C1)Nc1ccccc14)[C@@H]32.Cl [Tabersonine hydrochloride]

>  <Reported value>
82.6 µM

$$$$
>  <Compound>
COc1cc(O)cc(O)c1C(=O)/C=C/c1ccccc1 [(E)-Cardamonin]

>  <Reported value>
> 100 µM

$$$$

Now take the following compound into account.
The compound listed as CC(Cc1ccc(O)c(O)c1)C(C)Cc1ccc(O)c(O)c1 (stereo not shown) [Nordihydroguaiaretic acid] has a reported CC50 of > 100 µM

====

compounds and their reported pIC50
tested on: rPEDV-NLuc; assay: microbe, parasite or virus in culture; type: cell-based, Porcine epidemic diarrhea virus (PEDV) YN150 strain; settings: Vero cells, rPEDV-NLuc MOI 0.01, 1 h pre-treatment, 1.25-10 μM, NLuc activity at 20 h post-infection; read-out: IC50
Worth noting: pIC50 values are minus log10 of concentrations stated in mol/L.

Some compounds with known pIC50 results, for comparison:
>  <Compound>
COc1cc(O)cc(O)c1C(=O)/C=C/c1ccccc1 [(E)-Cardamonin]

>  <Reported value>
5.67

$$$$
>  <Compound>
C[C@@]1(C(=O)O)CC[C@]2(C)CC[C@]3(C)C4=CC(=O)c5c(cc(O)c(O)c5C=O)[C@]4(C)CC[C@@]3(C)[C@@H]2C1

>  <Reported value>
5.63

$$$$

Now take the following compound into account.
Record CC(Cc1ccc(O)c(O)c1)C(C)Cc1ccc(O)c(O)c1 (stereo not shown) [Nordihydroguaiaretic acid] , field pIC50: 5.30

====

system: rPEDV-NLuc; assay: microbe, parasite or virus in culture; format: cell-based, Porcine epidemic diarrhea virus (PEDV) YN150 strain; conditions: Porcine epidemic diarrhea virus, Vero, Vero cells, rPEDV-NLuc MOI 0.01, 1 h pre-treatment, 1.25-10 μM, NLuc activity at 20 h post-infection
Counter-ions that a name gives are not always drawn.
Entries and their pIC50
Please note pIC50 is a logarithmic value: minus log10 of concentration in mol/L. Answer with that number alone.

Examples from the recorded data:
>  <Compound>
COc1ccc2c(c1)[nH]c1c(C)nccc12 [Harmine hydrochloride]

>  <Reported value>
5.88

$$$$
>  <Compound>
C=C1C(=O)[C@]23[C@H](O)[C@H]1CC[C@H]2[C@@]12CO[C@]3(O)[C@@H](O)[C@@H]1C(C)(C)CC[C@@H]2O [Oridonin]

>  <Reported value>
5.52

$$$$
>  <Compound>
Cc1cc(O)c2c(c1)C(=O)c1cc(O)cc(O)c1C2=O [Emodin]

>  <Reported value>
5.68

$$$$

Lookup result for C[C@H](CCC(=O)O)[C@H]1CC[C@H]2[C@@H]3CC[C@@H]4C[C@H](O)CC[C@]4(C)[C@H]3CC[C@]12C [Lithocholic acid] ; measured pIC50: 5.63

Input C[C@H]1[C@H](C)CC[C@]2(C(=O)O)CC[C@]3(C)C(=CC[C@@H]4[C@@]5(C)CCC(=O)C(C)(C)[C@@H]5CC[C@]43C)[C@H]12 [Ursonic acid] . Output pIC50: 5.67

What the record says about Cc1cc2c(C(C)C)c(O)c(O)c(C=O)c2c(O)c1-c1c(C)cc2c(C(C)C)c(O)c(O)c(C=O)c2c1O [gossypol-Acetic acid] : pIC50 is 5.54

pIC50 for O=c1ccc2cc(O)c(O)cc2o1 [Esculetin] is 5.22

The reported value for O=C(/C=C/c1ccc(O)c(O)c1)OCCc1ccccc1 [Caffeic Acid Phenethyl Ester] in terms of pIC50 is 5.76

// field: pIC50; key: CC1=C(C(=O)OCCN(Cc2ccccc2)c2ccccc2)C(c2cccc([N+](=O)[O-])c2)C(P2(=O)OCC(C)(C)CO2)=C(C)N1 (centres unmarked) [Efonidipine, reference compound] ; value = 5.25

The compound listed as C[C@@H]1[C@H](O)[C@@H](C)/C=C/C=C/C=C/C=C/C=C/C=C/C=C/[C@H](O[C@@H]2O[C@H](C)[C@@H](O)[C@H](N)[C@@H]2O)C[C@@H]2O[C@](O)(C[C@@H](O)C[C@@H](O)[C@H](O)CC[C@@H](O)C[C@@H](O)CC(=O)O[C@H]1C)C[C@H](O)[C@H]2C(=O)O [Amphotericin B, reference compound] shows pIC50 equal to 5.54
